Assignment: determine reported IC50 at 48 h for the given compounds.
assay: Antiproliferative activity against human HMEC-1 cells assessed as inhibition of cell proliferation incubated for 48 hrs by coulter counter assay; format: toxicity, cell-based

Entry "CCOP(=O)(CC(=O)NCn1cc(CN2C(=O)c3cccc4cc([N+](=O)[O-])cc(c34)C2=O)nn1)OCC" , IC50 at 48 h reported as > 250 µM

Entry "CCOP(=O)(CCCn1cc(CN2C(=O)c3cccc4c(Br)ccc(c34)C2=O)nn1)OCC" , IC50 at 48 h reported as > 250 µM

Entry "CCOP(=O)(CCOCCn1cc(CN2C(=O)c3cccc4cccc(c34)C2=O)nn1)OCC" , IC50 at 48 h reported as > 250 µM

Entry "CCOP(=O)(CCCCn1cc(CN2C(=O)c3cccc4c(Br)ccc(c34)C2=O)nn1)OCC" , IC50 at 48 h reported as > 250 µM

Entry "CCOP(=O)(CCOCn1cc(CN2C(=O)c3cccc4cccc(c34)C2=O)nn1)OCC" , IC50 at 48 h reported as > 250 µM

Entry "CCOP(=O)(CCn1cc(CN2C(=O)c3cccc4cccc(c34)C2=O)nn1)OCC" , IC50 at 48 h reported as > 250 µM

Entry CCOP(=O)(CC(O)Cn1cc(CN2C(=O)c3cccc4c(Br)ccc(c34)C2=O)nn1)OCC (centres undefined) , IC50 at 48 h reported as > 250 µM

Entry CCOP(=O)(CC(O)Cn1cc(CN2C(=O)c3cccc4cccc(c34)C2=O)nn1)OCC (centres undefined) , IC50 at 48 h reported as > 250 µM

Entry "CCOP(=O)(CCn1cc(CN2C(=O)c3cccc4cc([N+](=O)[O-])cc(c34)C2=O)nn1)OCC" , IC50 at 48 h reported as > 250 µM

---

tested on: NCI-H322M; experiment: Cytotoxicity against human NCI-H322M cells assessed as cell growth inhibition incubated for 48 hrs by sulforhodamine B reagent assay; format: functional, cell-based
ATTRIBUTE_MEASURED: IC50
Remember to quote the unit after the number.

// compound "O=C1c2cccc3cccc(c23)C(=O)N1CCCCOc1ccc(-c2nc3ccc(N4CCOCC4)cc3[nH]2)cc1" , assay NCI-H322M, IC50 value: 110 nM

// compound "CN1CCN(c2ccc3nc(-c4ccc(OCCCN5C(=O)c6cccc7cccc(c67)C5=O)cc4)[nH]c3c2)CC1" , assay NCI-H322M, IC50 value: 110 nM

---

system: SF-539; assay: Cytotoxicity against human SF-539 cells assessed as cell growth inhibition incubated for 48 hrs by sulforhodamine B reagent assay; type: functional, cell-based; details: SF-539, 48 h
Assignment: determine reported pIC50 for the given compounds.
Would you please state pIC50, meaning minus log10 of the concentration in mol/L, as a bare number?

Entry "O=C1c2cccc3cccc(c23)C(=O)N1CCCCOc1ccc(-c2nc3ccc(N4CCOCC4)cc3[nH]2)cc1" , pIC50 reported as 6.96

Entry "CN1CCN(c2ccc3nc(-c4ccc(OCCCN5C(=O)c6cccc7cccc(c67)C5=O)cc4)[nH]c3c2)CC1" , pIC50 reported as 6.96

---

Assignment: determine reported ΔTm for the given compounds.
system: Calf thymus DNA; experiment: Binding affinity to calf thymus DNA assessed as DNA intercalation by measuring change in melting temperature by thermal denaturation assay based UV-Vis spectrophotometric analysis; assay type: nucleic-acid assay; settings: Bos taurus
Dear colleague, please return just the value in °C, with no unit written.

// compound "CCSc1ccc2c3c(cccc13)C(=O)N(CCCn1cc[n+](C)c1)C2=O" , assay Calf thymus DNA, ΔTm value: 3

// compound "O=C1c2cccc3cccc(c23)C(=O)N1CCCn1cc[n+](Cc2ccccc2)c1" , assay Calf thymus DNA, ΔTm value: 3

// compound "C[n+]1ccn(CCCN2C(=O)c3cccc4cccc(c34)C2=O)c1" , assay Calf thymus DNA, ΔTm value: 3

// compound "CC[n+]1ccn(CCCN2C(=O)c3cccc4cccc(c34)C2=O)c1" , assay Calf thymus DNA, ΔTm value: 3
